- System: DU-145 prostate
- ASSAY INFO: NCI-60 one-dose screen, 48 h
- PARTICULARS: 10 µM unless noted
- Procedure: Cells are grown in 96 well plates and exposed to the test compound for 48 hours. Compounds are tested at a single concentration, which is 10^-5 M for most compounds. The reported endpoint is percent growth (GI% or GIPRCNT), where numbers from 0 - 100% represent growth inhibition, and numbers from -100% - 0 represent cell death. For example, a value of 40 represents 60% growth inhibition. A value of 0 means no net growth occurred over the course of the experiment. […]
Compounds without any hit were thinned out: in the full panel of roughly 83,000, 20% have a hit. The source made the active and inactive calls. The calls were made as follows: active = growth percent below 10; inactive = the rest.
Outcome field: choose from Y (active), N (inactive)

# count of solved cases: 5
MOLECULE: NC(=O)c1c(NC(=O)c2ccc(Cl)cc2)sc2c1CCC(=O)C2
CLASSIFICATION: N
//
MOLECULE: Brc1ccc(-c2cnc3nonc3n2)cc1
CLASSIFICATION: N
//
MOLECULE: COc1cc(-c2nc3ccc(C)cc3[nH]2)ccc1OCC(=O)N=Nc1c(O)[nH]c2ccc(Cl)cc12
CLASSIFICATION: N
//
MOLECULE: N=c1sc(Cc2cc(Cl)ccc2Cl)cn1CC(=O)c1ccccc1
CLASSIFICATION: N
//
MOLECULE: COC(=O)C1=C(C(=O)Nc2cccnc2)C2OC1(C(Cc1ccccc1)Oc1ccccc1)C1OC21 (configuration not stated)
CLASSIFICATION: N

Ask: Just curious, what result did `C[C@@H](CO)[C@@H]1CC[C@]2(C(=O)N3CCN(C)CC3)CC[C@]3(C)[C@H](CC[C@@H]4[C@@]5(C)CC[C@H](O)C(C)(C)[C@@H]5CC[C@]43C)[C@@H]12` get here?
Reply: N

Ask: Queued: `COc1cc2c(cc1O)[C@@]1(C)[C@H](c3ccccc3Br)OC(=O)N1CC2`
Reply: N

Ask: Repeat with `CC(C)(C)c1cc(C=Nc2cccc(C(F)(F)F)c2)c(O)c(C(C)(C)C)c1`
Reply: N

Ask: Proceed to `Cc1cc2nc3c4ccccc4n(CCN(C)C)c3nc2cc1C`
Reply: Y

Ask: Note, next up: `COc1ccc(-c2nnc(SCC(=O)Nc3ccc(/C(C)=N\O)cc3)n2-c2ccccc2)cc1OC`
Reply: N

Ask: Then `Nc1ccc([N+](=O)[O-])cc1N=C/C=C/c1ccccc1` ?
Reply: N

Ask: Next entry: `O=C1Nc2ccc(F)cc2/C1=N/c1nnc(Sc2ccccc2)s1`
Reply: N

====

- System: NCI-H460 lung
- ASSAY INFO: NCI-60 one-dose screen, 48 h
- PARTICULARS: 10 µM unless noted
- Experimental: Growth inhibition of the NCI-H460 human Non-Small Cell Lung tumor cell line is measured as a screen for anti-cancer activity. Cells are grown in 96 well plates and exposed to the test compound for 48 hours. Compounds are tested at a single concentration, which is 10^-5 M for most compounds. The reported endpoint is percent growth (GI% or GIPRCNT), where numbers from 0 - 100% represent growth inhibition, and numbers from -100% - 0 represent cell death. […]
The panel holds about 83,000 compounds, 20% with a hit somewhere; the sample as a whole holds those more often. Active and inactive are the calls of the source. The calls were made as follows: active = growth percent below 10; inactive = the rest.
Valid outcomes are listed here; reply with one: y = active, n = inactive

Worked cases, answers included:
MOLECULE: O=C1NC(=O)c2c1c1c3ccccc3[nH]c1c1oc3ccc(F)cc3c21
CLASSIFICATION: n

MOLECULE: Cc1ccc(C)n1/C=C/n1c(C)ccc1C
CLASSIFICATION: n

MOLECULE: CN1CCN(CCCOC(=O)c2c3c(n4ccccc24)C(=O)c2ncccc2C3=O)CC1
CLASSIFICATION: y

MOLECULE: COc1ccc(/C=C/C(=O)c2cc3c(N)c(C(=O)Nc4ccc(OC)cc4)sc3nc2C)cc1
CLASSIFICATION: y

MOLECULE: C=C(CO)[C@@H]1CC[C@]2(COC3CCCCO3)CC[C@]3(C)[C@H](CC[C@@H]4[C@@]5(C)C=C(C=O)C(=O)C(C)(C)[C@@H]5CC[C@]43C)[C@@H]12 (stereo partly specified)
CLASSIFICATION: y

Now take the following molecule into account.
Ask: Which outcome did this test record for the molecule `CCOC(=O)c1cn2ncnc(Oc3ccc(NC(=O)NC4CC4)c(F)c3)c2c1C` ?
Reply: n
